Item-by-item account of melting point

# melting point (compound: O=C(O)Cc1c(C(=O)c2ccc3c(c2)OCCO3)[nH]c2ccc(C(F)(F)F)cc12 ) is > 250 °C

# melting point (compound: COC(=O)c1cccc2[nH]c(Sc3cccc4c(=O)cc[nH]c34)nc12 ) is > 250 °C

# melting point (compound: Cc1ccc(Oc2ccc(C(=O)N=C(N)N)cc2S(C)(=O)=O)cn1 ) is 197 to 199 °C

# melting point (compound: CN1Cc2c(C(=O)OC(C)(C)C)ncn2-c2cccc(I)c2C1=O ) is 203 to 204 °C

# melting point (compound: O=C1c2ccccc2COc2cc(Br)ccc21 ) is 110 to 112 °C

# melting point (compound: Nc1nc(NC2Cc3ccccc3C2)nc2c1ncn2C1OC(CO)C(O)C1O (stereo unspecified) ) is 129 to 132 °C

# melting point (compound: Cc1c(F)c(N2CCCC(n3ccnn3)C2)c(F)c2c1c(=O)c(C(=O)O)cn2C1CC1 (stereo unspecified) ) is 227 to 228 °C

# melting point (compound: O=C(O)CCCCCCc1nc2ccccc2s1 ) is 62 to 63 °C

# melting point (compound: Cn1cc2c([C@H]3C[C@H]3CN)cccc2n1 (relative stereo) ) is 155 to 156 °C

# melting point (compound: O=C(O)c1cn(Cc2nccs2)c2cc(N3CCN(c4ccncc4)CC3)ccc2c1=O ) is 273 to 276 °C

# melting point (compound: COc1cc2c(c(OC)c1)C(Cc1ccc(-c3ccccc3OC)cc1)N(C(=O)OC(C)(C)C)CC2 (stereo unspecified) ) is 126 to 128 °C

# melting point (compound: CC(NC(=O)c1cc(Cl)ccc1NC(=O)C1CC(=O)NN1)C1CC1 (stereo unspecified) ) is 248 °C

# melting point (compound: Cc1nc(-c2ccccc2C(F)(F)F)c(-c2ccccc2C(F)(F)F)o1 ) is 100 to 102 °C

# melting point (compound: O=C(O)CCCC(=O)c1ccc(O)c(CCC(=O)O)n1 ) is 134 to 136 °C

# melting point (compound: Cc1cccc(C)c1N1CCN(c2c(C)cccc2C)C1=N ) is 188 to 190 °C

# melting point (compound: COc1cc2c(cc1Nc1ncc(Cl)c(N[C@H]3[C@@H](C(N)=O)[C@@H]4C=C[C@H]3C4)n1)CCN(CCS(C)(=O)=O)CC2 ) is 132 to 146 °C

# melting point (compound: CCOC(=O)C1=Cc2cc(C)cc(Br)c2NC1C(F)(F)F (stereo unspecified) ) is 122 to 124 °C

# melting point (compound: Cc1cc2ncnn2nc1OCCC(C)(C)CCS(N)(=O)=O ) is 143 to 144 °C

# melting point (compound: NC(=NCC(F)(F)F)Nc1ccnc(SCCCC(=O)O)n1 ) is 234 to 236 °C

# melting point (compound: CCCCc1c(C(=O)OCC)cc(OC(C)=O)c2c(OC)cccc12 ) is 86 to 88 °C

# melting point (compound: CCc1c(-c2cnccn2)ssc1=S ) is 121 °C

----------
Item-by-item account of melting point

Some compounds with known melting point results, for comparison:
N=C(N)c1ccc(N2CC(CN3CCC(CC(=O)O)(C(=O)O)CC3)OC2=O)cc1 (stereo not given)
145 °C
N#Cc1cnc2cc(/C=C/c3ccncc3)sc2c1Nc1ccc(Oc2ccccc2)cc1
240 to 241 °C
Cc1ncc(C(=O)NCc2cc(C(F)(F)F)cc(C(F)(F)F)c2)c(-c2ccccc2)n1
188 to 190 °C

# melting point (compound: COCc1ccc(C(=O)O[C@H](CC(C)C)C(=O)O)o1 ) is 73 to 74 °C

All values here come from a melting point compilation (Tetko et al.; mined from patent text by program, amines drawn as free bases though some values may be those of a salt).
